System: DLD-1 wild-type colorectal adenocarcinoma cells
Test: Cell viability assay (Cell Titer-Glo), DLD-1 wild-type
Assay type: cell-based
Settings: Homo sapiens, DLD-1, 168 h; 10 μM, 7 days incubation; read-out: DLD-1 wild-type % inh at 10 μM
Structures can show the parent of a compound that is named as a salt.
Reported inhibition at 10 µM values follow for various molecules

Sample answers from the record:
| molecule | observable | result |
| --- | --- | --- |
| CNC(=O)c1ccc(N2CCN(Cc3ccc4c(=O)n(C(C)C)c(=O)[nH]c4c3)CC2)cn1 | inhibition at 10 µM | 33 to 67% |
| CCn1c(=O)[nH]c2cc(CN3CCN(c4ccc(C(=O)NC5COC5)nc4C)CC3)sc2c1=O | inhibition at 10 µM | < 33% |

Prompt: For the molecule CCn1c(=O)[nH]c2cc(CN3CCN4c5ccc(C(=O)NC)nc5OC[C@H]4C3)sc2c1=O , what inhibition at 10 µM is on record?
Response: < 33%

Prompt: For the molecule CCn1c(=O)[nH]c2cc(CN3CCN(c4ccc(C(=O)NC)nc4)CC3)ccc2c1=O [Compound 3, formate] , what inhibition at 10 µM is on record?
Response: < 33%

Prompt: For the molecule CCN1Cc2ccc(CN3CCN(c4ccc(C(=O)NC)nc4)CC3)cc2NC1=O [Compound 196, formate] , what inhibition at 10 µM is on record?
Response: < 33%

Prompt: For the molecule CCn1c(=O)[nH]c2cc(CN3CCN(c4ccc(C(=O)NC)nc4C)CC3)c(Br)cc2c1=S , what inhibition at 10 µM is on record?
Response: < 33%

* * *

Target: PARP1 (Homo sapiens, UniProt P09874)
Sequence (P09874 whole entry): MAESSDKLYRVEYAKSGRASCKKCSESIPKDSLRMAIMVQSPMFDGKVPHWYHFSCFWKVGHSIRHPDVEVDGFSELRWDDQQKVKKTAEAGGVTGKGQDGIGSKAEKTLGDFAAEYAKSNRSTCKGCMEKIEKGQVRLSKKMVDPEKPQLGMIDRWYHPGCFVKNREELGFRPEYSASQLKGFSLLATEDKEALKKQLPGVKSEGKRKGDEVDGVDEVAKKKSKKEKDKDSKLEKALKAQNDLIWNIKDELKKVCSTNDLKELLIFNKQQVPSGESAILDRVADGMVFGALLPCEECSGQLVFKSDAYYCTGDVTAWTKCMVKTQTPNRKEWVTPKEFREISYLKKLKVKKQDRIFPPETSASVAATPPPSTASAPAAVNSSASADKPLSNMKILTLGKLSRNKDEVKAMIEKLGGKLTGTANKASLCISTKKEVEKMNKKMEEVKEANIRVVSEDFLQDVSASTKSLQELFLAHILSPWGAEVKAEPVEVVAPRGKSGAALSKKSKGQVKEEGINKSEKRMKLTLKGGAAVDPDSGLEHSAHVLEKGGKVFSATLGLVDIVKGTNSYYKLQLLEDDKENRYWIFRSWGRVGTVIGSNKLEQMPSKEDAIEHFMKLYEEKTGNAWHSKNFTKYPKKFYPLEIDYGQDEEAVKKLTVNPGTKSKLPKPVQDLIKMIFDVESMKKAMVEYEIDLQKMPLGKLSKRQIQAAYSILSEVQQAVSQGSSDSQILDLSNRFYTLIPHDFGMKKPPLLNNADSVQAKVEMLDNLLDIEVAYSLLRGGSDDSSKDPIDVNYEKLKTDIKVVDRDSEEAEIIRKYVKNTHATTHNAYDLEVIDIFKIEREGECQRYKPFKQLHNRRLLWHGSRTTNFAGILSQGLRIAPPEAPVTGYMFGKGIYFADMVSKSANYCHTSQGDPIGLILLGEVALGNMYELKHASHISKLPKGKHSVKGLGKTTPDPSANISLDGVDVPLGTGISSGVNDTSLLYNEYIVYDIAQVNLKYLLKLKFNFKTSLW
Test: PARP1 biochemical trapping assay (BPS PARPtrap)
pEC50: −log10 of the molar value. Structures can show the parent of a compound that is named as a salt.
Reported pEC50 values follow for various molecules

Sample answers from the record:
| molecule | system_name | result |
| --- | --- | --- |
| CCn1c(=O)[nH]c2cc(CN3CCN(c4ccc(C(=O)NC)nc4C)CC3)sc2c1=O | PARP1 (Homo sapiens, UniProt P09874) | 5.52 to 6.52 |
| CCn1c(=O)[nH]c2cc(CN3CCN(c4ccc(C(=O)NC)nc4C)CC3)ccc2c1=S [Compound 51, formate] | PARP1 (Homo sapiens, UniProt P09874) | 5.52 to 6.52 |
| CCn1c(=O)[nH]c2cc(CN3CCN(c4ccc(C(=O)NC)nc4C)CC3)ccc2c1=O | PARP1 (Homo sapiens, UniProt P09874) | > 6.52 |
| CCN1Cc2ccc(CN3CCN(c4ccc(C(=O)NC)nc4)CC3)cc2NC1=O [Compound 196, formate] | PARP1 (Homo sapiens, UniProt P09874) | 5.52 to 6.52 |

Prompt: For the molecule CCn1c(=O)[nH]c2cc(CN3CCN(c4ccc(C(=O)NC)nc4C)C(=O)C3)sc2c1=O , what pEC50 is on record?
Response: < 5.52

Prompt: For the molecule CCn1c(=O)[nH]c2cc(CN3CCN(c4ccc(C(=O)NC5COC5)nc4C)CC3)sc2c1=O , what pEC50 is on record?
Response: < 5.52

Prompt: For the molecule CCn1c(=O)[nH]c2cc(CN3CCN(c4ccc(C(=O)NC)nc4C(F)(F)F)CC3)sc2c1=O , what pEC50 is on record?
Response: 5.52 to 6.52

Prompt: For the molecule CCn1c(=O)[nH]c2cc(CN3CCN(c4ccc(C(=O)NC(CO)CO)nc4C)CC3)sc2c1=O , what pEC50 is on record?
Response: < 5.52

Prompt: For the molecule CCn1c(=O)[nH]c2cc(CN3CCN(c4ccc(C(=O)NC)nc4F)CC3)sc2c1=O , what pEC50 is on record?
Response: > 6.52

Prompt: For the molecule CCn1c(=O)[nH]c2cc(CN3CCN(c4ccc(C(=O)NC)nc4)CC3)ccc2c1=O [Compound 3, formate] , what pEC50 is on record?
Response: 5.52 to 6.52
